Source: ChEMBL document CHEMBL1152919

Tested on: SK-N-SH
runDescription: Cytoprotective activity against 26S proteasome inhibitor MG132-induced stress in human SK-N-SH cells assessed as cell viability treated 1 hr before MG132 challenge measured after 24 hrs
Type: functional, cell-based
measurementParameters: Homo sapiens, SK-N-SH; read-out: EC50
quantity: EC50 (µM)
// return numeric value only (unit: µM, not printed)

compound="CCC(C)N(CC(O)CO/N=C(\\Cl)c1nc2ccccc2o1)C(C)CC (stereo unspecified)" unitdescriptor=µM measurement=20.9
compound="OC(CO/N=C(\\Cl)c1nc2c(F)cccc2o1)CN1CCCCC1 (stereo unspecified)" unitdescriptor=µM measurement=6.9

Query: Tell me the measured EC50 of CC(C)N(CC(O)CO/N=C(\Cl)c1nc2ccccc2o1)C(C)C (stereo unspecified) , please.
Response: 14.7

Query: Endpoint output: EC50 of CC(C)N(CC(O)CO/N=C(\Cl)c1nc2ccccc2o1)C(C)(C)C (stereo unspecified) . Value?
Response: 9.9

Query: Endpoint output: EC50 of CC1CC(C)CN(CC(O)CO/N=C(\Cl)c2nc3ccccc3o2)C1 (stereo unspecified) . Value?
Response: 9.3

Query: Which value of EC50 has been reported for CCN(CC)CC(O)CO/N=C(\Cl)c1nc2ccccc2o1 (stereo unspecified) in the records?
Response: 10.2

Query: What EC50 value was documented for this compound, CCS(=O)(=O)c1ccc2oc(/C(Cl)=N/OCC(O)CN3CCCCC3)nc2c1 (stereo unspecified) ?
Response: 5.9

Query: Which EC50 value belongs to Cc1ccc2nc(/C(Cl)=N/OCC(O)CN3CCCCC3)oc2c1 (stereo unspecified) ?
Response: 6.1

Query: Given the compound OC(CO/N=C(\Cl)c1nc2cc(Cl)ccc2o1)CN1CCCCC1 (stereo unspecified) , what is its reported EC50?
Response: 6.3

Query: Which EC50 reading was recorded for the compound CC(C)N(CC(O)CO/N=C(\Cl)c1nc2ccccc2o1)CC1CC1 (stereo unspecified) ?
Response: 6.3

Query: Which EC50 is reported for this compound? OC(CO/N=C(\Cl)c1nc2ccccc2o1)CN1CCC(F)(F)CC1 (stereo unspecified)
Response: 26.4
